Data provenance: patent US20050209278A1

TESTED_TARGET: MMP-9 (Homo sapiens)
Construct: made in house; host or cells: MMP-9-transfected HT1080 cells (spent media)
Sequence (P14780 107-707 limits assumed): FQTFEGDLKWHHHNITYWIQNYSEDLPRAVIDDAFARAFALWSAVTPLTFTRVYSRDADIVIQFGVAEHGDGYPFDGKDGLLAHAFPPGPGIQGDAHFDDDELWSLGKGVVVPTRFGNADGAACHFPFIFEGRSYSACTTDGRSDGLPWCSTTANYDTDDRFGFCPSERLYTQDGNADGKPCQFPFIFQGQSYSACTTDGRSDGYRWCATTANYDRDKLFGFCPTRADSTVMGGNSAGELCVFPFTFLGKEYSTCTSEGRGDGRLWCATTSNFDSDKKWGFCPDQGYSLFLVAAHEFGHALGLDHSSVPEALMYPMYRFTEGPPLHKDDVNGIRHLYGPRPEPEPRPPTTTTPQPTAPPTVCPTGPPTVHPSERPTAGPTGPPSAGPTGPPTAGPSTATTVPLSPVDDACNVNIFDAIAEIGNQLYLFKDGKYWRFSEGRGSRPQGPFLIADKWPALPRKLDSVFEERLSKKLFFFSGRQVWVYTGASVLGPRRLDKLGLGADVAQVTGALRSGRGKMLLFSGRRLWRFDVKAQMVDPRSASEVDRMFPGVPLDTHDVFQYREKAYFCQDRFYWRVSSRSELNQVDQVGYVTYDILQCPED
ASSAY_NAME: In vitro MMP inhibition, Ki determination (fluorogenic substrate II)
Format: biochemical
ASSAY_CONTEXT: human recombinant enzyme; 4 μM substrate II; room temperature, 1 hr
pKi: −log10 of the molar value. Counter-ions that a name gives are not always drawn.
ASSAY_ENDPOINT: pKi

molecule="COCCN1CCC(C(=O)NO)(S(=O)(=O)N2CCC(c3ccc(OCCCC(F)(F)F)cc3)CC2)CC1 [Example 20, Hydrochloride]" assay_endpoint=pKi readout_number=8.41
molecule="O=C(NO)C1(S(=O)(=O)N2CCC(c3ccc(OCC(F)(F)F)cc3)CC2)CCN(C2CC2)CC1 [Example 25, Hydrochloride]" assay_endpoint=pKi readout_number=8.22
molecule="CCCCCc1ccc(C2CCN(S(=O)(=O)C3(C(=O)NO)CCN(CCOC)CC3)CC2)cc1 [Example 15, Hydrochloride]" assay_endpoint=pKi readout_number=9.89
molecule="CCCCCc1ccc(N2CCN(S(=O)(=O)C3(C(=O)NO)CCN(CCOC)CC3)CC2)cc1 [Example 6, Dihydrochloride]" assay_endpoint=pKi readout_number=9.54

====

Below is a list of entries, each paired with its recorded Ki value.
TESTED_TARGET: MMP-14 (Homo sapiens, UniProt P50281)
Construct: The catalytic domain enzyme was expressed in E. coli inclusion bodies, solubilized in urea; made in house
ASSAY_NAME: In vitro MMP inhibition, Ki determination (fluorogenic substrate II)
Format: biochemical
ASSAY_CONTEXT: value not in parenthesis; read-out: MMP-14 Ki
ASSAY_ENDPOINT: Ki (µM)

compound="CCCC(C)Cc1ccc(N2CCN(S(=O)(=O)C3(C(=O)NO)CCN(CCOC)CC3)CC2)cc1 (stereo not shown)" tested_target="MMP-14 (Homo sapiens, UniProt P50281)" assay_endpoint=Ki measurement_unit=µM limit_sign=> readout_number=10
compound=O=C(NO)C1(S(=O)(=O)N2CCN(c3ccc(-c4ccc(Cl)cc4)cn3)CC2)CCOCC1 tested_target="MMP-14 (Homo sapiens, UniProt P50281)" assay_endpoint=Ki measurement_unit=µM limit_sign== readout_number=0.328
compound=COCCN1CCC(C(=O)NO)(S(=O)(=O)N2CCN(c3ccccn3)CC2)CC1 tested_target="MMP-14 (Homo sapiens, UniProt P50281)" assay_endpoint=Ki measurement_unit=µM limit_sign== readout_number=0.181
compound="O=C(NO)C1(S(=O)(=O)N2CCN(c3ccc(OCCCC(F)(F)F)cc3F)CC2)CCOCC1 [Example 117]" tested_target="MMP-14 (Homo sapiens, UniProt P50281)" assay_endpoint=Ki measurement_unit=µM limit_sign== readout_number=5.69
compound=O=C(NO)C1(S(=O)(=O)N2CCN(c3ccc(-c4ccccc4)cc3)CC2)CCOCC1 tested_target="MMP-14 (Homo sapiens, UniProt P50281)" assay_endpoint=Ki measurement_unit=µM limit_sign== readout_number=0.358
compound=CCCCc1nnc(N2CCN(S(=O)(=O)C3(C(=O)NO)CCOCC3)CC2)s1 tested_target="MMP-14 (Homo sapiens, UniProt P50281)" assay_endpoint=Ki measurement_unit=µM limit_sign=> readout_number=10
compound=O=C(NO)C1(S(=O)(=O)N2CCN(c3cnc(CCC(F)(F)C(F)(F)F)cn3)CC2)CCOCC1 tested_target="MMP-14 (Homo sapiens, UniProt P50281)" assay_endpoint=Ki measurement_unit=µM limit_sign== readout_number=4.47
compound=CCc1ccc(N2CCN(S(=O)(=O)C3(C(=O)NO)CCN(CCOC)CC3)CC2)cc1 tested_target="MMP-14 (Homo sapiens, UniProt P50281)" assay_endpoint=Ki measurement_unit=µM limit_sign== readout_number=0.403
compound=CCCCOc1ccc(N2CCN(S(=O)(=O)C3(C(=O)NO)CCS(=O)(=O)CC3)CC2)cc1 tested_target="MMP-14 (Homo sapiens, UniProt P50281)" assay_endpoint=Ki measurement_unit=µM limit_sign=> readout_number=10
compound=CCCNC(=O)c1ccc(N2CCN(S(=O)(=O)C3(C(=O)NO)CCN(CCOC)CC3)CC2)cc1 tested_target="MMP-14 (Homo sapiens, UniProt P50281)" assay_endpoint=Ki measurement_unit=µM limit_sign=> readout_number=10
compound=COCCN1CCC(C(=O)NO)(S(=O)(=O)N2CCN(c3ccc(C)cc3)CC2)CC1 tested_target="MMP-14 (Homo sapiens, UniProt P50281)" assay_endpoint=Ki measurement_unit=µM limit_sign== readout_number=0.307
compound=O=C(NO)C1(S(=O)(=O)N2CCN(c3ncc(-c4ccc(Cl)cc4)cn3)CC2)CCOCC1 tested_target="MMP-14 (Homo sapiens, UniProt P50281)" assay_endpoint=Ki measurement_unit=µM limit_sign== readout_number=1.12
compound=CCOCCSc1ccc(N2CCN(S(=O)(=O)C3(C(=O)NO)CCOCC3)CC2)cc1 tested_target="MMP-14 (Homo sapiens, UniProt P50281)" assay_endpoint=Ki measurement_unit=µM limit_sign== readout_number=2.88
compound=CCCc1cnc(N2CCN(S(=O)(=O)C3(C(=O)NO)CCN(CCOC)CC3)CC2)nc1 tested_target="MMP-14 (Homo sapiens, UniProt P50281)" assay_endpoint=Ki measurement_unit=µM limit_sign== readout_number=2.59
compound=COCCN1CCC(C(=O)NO)(S(=O)(=O)N2CCN(c3ccc(OCC(C)C)c(F)c3)CC2)CC1 tested_target="MMP-14 (Homo sapiens, UniProt P50281)" assay_endpoint=Ki measurement_unit=µM limit_sign=> readout_number=10
compound=COCCN1CCC(C(=O)NO)(S(=O)(=O)N2CCN(c3ccc(OC(F)(F)F)cc3)CC2)CC1 tested_target="MMP-14 (Homo sapiens, UniProt P50281)" assay_endpoint=Ki measurement_unit=µM limit_sign== readout_number=0.623

====

TESTED_TARGET: MMP-2 (Homo sapiens, UniProt P08253)
Construct: made in house; host or cells: MMP-2-transfected p2AHT2 cells
Sequence (P08253 110-660): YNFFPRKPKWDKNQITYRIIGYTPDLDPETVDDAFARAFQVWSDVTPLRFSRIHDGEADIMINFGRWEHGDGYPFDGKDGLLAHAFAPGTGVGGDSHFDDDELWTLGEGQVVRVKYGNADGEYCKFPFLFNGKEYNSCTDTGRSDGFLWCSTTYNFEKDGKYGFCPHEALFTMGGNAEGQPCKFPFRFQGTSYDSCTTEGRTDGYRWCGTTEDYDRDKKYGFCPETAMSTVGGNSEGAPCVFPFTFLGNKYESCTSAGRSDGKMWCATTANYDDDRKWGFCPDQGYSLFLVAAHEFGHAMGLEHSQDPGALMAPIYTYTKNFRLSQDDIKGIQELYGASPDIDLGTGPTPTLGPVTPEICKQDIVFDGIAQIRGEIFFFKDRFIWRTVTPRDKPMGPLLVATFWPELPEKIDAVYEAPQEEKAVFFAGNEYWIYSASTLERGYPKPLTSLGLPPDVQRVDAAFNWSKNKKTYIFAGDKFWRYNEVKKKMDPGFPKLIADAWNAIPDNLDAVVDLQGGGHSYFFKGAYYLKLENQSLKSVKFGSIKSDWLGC
ASSAY_NAME: In vitro MMP inhibition, Ki determination (fluorogenic substrate II)
Format: biochemical
ASSAY_CONTEXT: value not in parenthesis; read-out: MMP-2 Ki
pKi: −log10 of the molar value.
Param threshold (9) applies to pKi; output t when value >= threshold, f when value < threshold.

compound="COCCN1CCC(C(=O)NO)(S(=O)(=O)N2CCN(c3ccc(OC(F)(F)F)cc3)CC2)CC1 [Example 202]" category=t
compound="CCOCCSc1ccc(N2CCN(S(=O)(=O)C3(C(=O)NO)CCOCC3)CC2)cc1 [Example 234]" category=f
compound="CCCCc1ccc(N2CCN(S(=O)(=O)C3(C(=O)NO)CCN(c4ncccn4)CC3)CC2)nc1 [Example 99]" category=t
compound="Cc1ccc(N2CCC(C(=O)NO)(S(=O)(=O)N3CCN(c4ccc(OCCCC(F)(F)F)cc4)CC3)CC2)cc1 [Example 161]" category=f
compound="CCCCOc1ccc(N2CCN(S(=O)(=O)C3(C(=O)NO)CCN(C(=O)N4CCN(C)CC4)CC3)CC2)cc1 [Example 230]" category=t
compound="O=C(NO)C1(S(=O)(=O)N2CCN(c3ncc(Br)cn3)CC2)CCOCC1 [Example 103]" category=f
compound="CCCc1ccc(N2CCN(S(=O)(=O)C3(C(=O)NO)CCN(c4ccc(C)cc4)CC3)CC2)cc1 [Example 171]" category=f
compound="CCCCOc1ccc(N2CCN(S(=O)(=O)C3(C(=O)NO)CCN(Cc4nccn4C)CC3)CC2)cc1 [Example 245]" category=t
compound="O=C(NO)C1(S(=O)(=O)N2CCN(c3ccc(OC(F)(F)F)cc3)CC2)CCN(C2CC2)CC1 [Example 203]" category=t

====

TESTED_TARGET: MMP-1 (Homo sapiens)
Construct: made in house; host or cells: MMP-1-transfected HT-1080 cells (spent media)
Sequence (P03956 100-469): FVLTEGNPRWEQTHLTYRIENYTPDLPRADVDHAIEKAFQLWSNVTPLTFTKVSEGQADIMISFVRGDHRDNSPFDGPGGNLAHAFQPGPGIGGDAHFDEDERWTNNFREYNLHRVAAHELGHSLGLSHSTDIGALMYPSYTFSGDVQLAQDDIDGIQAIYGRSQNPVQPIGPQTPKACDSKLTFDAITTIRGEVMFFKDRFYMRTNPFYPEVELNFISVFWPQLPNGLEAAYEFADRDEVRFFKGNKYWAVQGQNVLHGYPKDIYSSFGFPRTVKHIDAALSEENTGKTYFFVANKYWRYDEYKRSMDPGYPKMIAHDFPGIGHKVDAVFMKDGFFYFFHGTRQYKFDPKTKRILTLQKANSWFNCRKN
ASSAY_NAME: In vitro MMP inhibition, Ki determination (fluorogenic substrate II)
Assay type: biochemical
ASSAY_CONTEXT: value not in parenthesis; read-out: MMP-1 Ki
Listed next: entries and their corresponding Ki.
ASSAY_ENDPOINT: Ki

molecule=CCCCOc1ccc(N2CCN(S(=O)(=O)C3(C(=O)NO)CCN(Cc4ncc[nH]4)CC3)CC2)cc1 assay_endpoint=Ki result="> 10 µM"
molecule=CCCCCCc1ccc(N2CCN(S(=O)(=O)C3(C(=O)NO)CCN(CCOC)CC3)CC2)cc1 assay_endpoint=Ki result="> 10 µM"
molecule="CCCCCCCCCc1cnc(N2CCN(S(=O)(=O)C3(C(=O)NO)CCOCC3)CC2)nc1 [Example 111]" assay_endpoint=Ki result="> 10 µM"
molecule=O=C(NO)C1(S(=O)(=O)N2CCN(c3ccc(OCCCC(F)(F)F)cn3)CC2)CCOCC1 assay_endpoint=Ki result="2.85 µM"
molecule="CCC(C)Cc1ccc(N2CCN(S(=O)(=O)C3(C(=O)NO)CCN(CCOC)CC3)CC2)cc1 (stereo not shown)" assay_endpoint=Ki result="> 10 µM"
molecule=CCCCCc1ccc(N2CCN(S(=O)(=O)C3(C(=O)NO)CCN(S(C)(=O)=O)CC3)CC2)cc1 assay_endpoint=Ki result="> 10 µM"
molecule=COCCN1CCC(C(=O)NO)(S(=O)(=O)N2CCN(c3ccccc3)CC2)CC1 assay_endpoint=Ki result="2.98 µM"
molecule=CCCCOc1ccc(N2CCN(S(=O)(=O)C3(C(=O)NO)CCN(c4cccc(C)c4)CC3)CC2)cc1 assay_endpoint=Ki result="> 10 µM"
molecule=CC(C)(C)N1CCC(C(=O)NO)(S(=O)(=O)N2CCN(c3ccc(OCCCC(F)(F)F)cc3F)CC2)CC1 assay_endpoint=Ki result="> 10 µM"
molecule=CC(C)COc1ccc(N2CCN(S(=O)(=O)C3(C(=O)NO)CCOCC3)CC2)cc1Cl assay_endpoint=Ki result="> 10 µM"
molecule=CCCCCc1ccc(N2CCN(S(=O)(=O)C3(C(=O)NO)CCN(S(N)(=O)=O)CC3)CC2)cc1 assay_endpoint=Ki result="> 10 µM"
molecule=O=C(NO)C1(S(=O)(=O)N2CCN(c3cnc(CCC(F)(F)F)cn3)CC2)CCOCC1 assay_endpoint=Ki result="> 10 µM"
molecule=COc1ccc(-c2ccc(N3CCN(S(=O)(=O)C4(C(=O)NO)CCOCC4)CC3)nc2)cc1 assay_endpoint=Ki result="0.493 µM"
molecule=CCCCOc1ccc(N2CCN(S(=O)(=O)C3(C(=O)NO)CCN(c4ccc(OC)nc4)CC3)CC2)cc1 assay_endpoint=Ki result="> 10 µM"
molecule=CCCNC(=O)c1ccc(N2CCN(S(=O)(=O)C3(C(=O)NO)CCN(CCOC)CC3)CC2)cc1 assay_endpoint=Ki result="> 10 µM"
molecule=O=C(NO)C1(S(=O)(=O)N2CCN(c3ccc(SC(F)(F)F)cc3)CC2)CCN(Cc2ccccc2)CC1 assay_endpoint=Ki result="> 10 µM"
